- TEST NAME: qHTS assay for small molecule antagonists of retinoid X receptor alpha signaling (AID 588546);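 also: cells stimulated with 9-cis-retinoic acid as agonist; % is scaled to controls: 0 for no effect and ±100 for the full control effect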
- EXPERIMENTAL CONTEXT: HEK293T RXRa-UAS-bla, beta-lactamase ratio, antagonist mode; measured here: W530 green channel, cytotoxicity proxy
Inconclusive results are not listed.
READOUT LABEL: max response (%)
Entry rule: numbers only, all in %.

Record excerpt, results attached:
MOLECULE | UNIT DESCRIPTOR | EXPERIMENTAL VALUE
C=Cc1ccccc1Cl | % | -3.63
O=S(=O)(O)c1ccccc1 | % | 5.99
C[Si](C)(C)O[Si](C)(C)O[Si](C)(C)C | % | -9.81
O=C(O)c1ccccc1 | % | -4.31
C=CC(C)(CCC=C(C)C)OC(C)=O (centres undefined) | % | -5.27

In the following, a different molecule is considered.
Query :: Quick one: max response of c1ccc2scnc2c1 ?
Result :: -9.8
